Reference source for all entries: patent US10214519B2

systemName: PI3Kβ (Homo sapiens (Human), UniProt P42338)
Sequence (P42338 whole entry, canonical isoform): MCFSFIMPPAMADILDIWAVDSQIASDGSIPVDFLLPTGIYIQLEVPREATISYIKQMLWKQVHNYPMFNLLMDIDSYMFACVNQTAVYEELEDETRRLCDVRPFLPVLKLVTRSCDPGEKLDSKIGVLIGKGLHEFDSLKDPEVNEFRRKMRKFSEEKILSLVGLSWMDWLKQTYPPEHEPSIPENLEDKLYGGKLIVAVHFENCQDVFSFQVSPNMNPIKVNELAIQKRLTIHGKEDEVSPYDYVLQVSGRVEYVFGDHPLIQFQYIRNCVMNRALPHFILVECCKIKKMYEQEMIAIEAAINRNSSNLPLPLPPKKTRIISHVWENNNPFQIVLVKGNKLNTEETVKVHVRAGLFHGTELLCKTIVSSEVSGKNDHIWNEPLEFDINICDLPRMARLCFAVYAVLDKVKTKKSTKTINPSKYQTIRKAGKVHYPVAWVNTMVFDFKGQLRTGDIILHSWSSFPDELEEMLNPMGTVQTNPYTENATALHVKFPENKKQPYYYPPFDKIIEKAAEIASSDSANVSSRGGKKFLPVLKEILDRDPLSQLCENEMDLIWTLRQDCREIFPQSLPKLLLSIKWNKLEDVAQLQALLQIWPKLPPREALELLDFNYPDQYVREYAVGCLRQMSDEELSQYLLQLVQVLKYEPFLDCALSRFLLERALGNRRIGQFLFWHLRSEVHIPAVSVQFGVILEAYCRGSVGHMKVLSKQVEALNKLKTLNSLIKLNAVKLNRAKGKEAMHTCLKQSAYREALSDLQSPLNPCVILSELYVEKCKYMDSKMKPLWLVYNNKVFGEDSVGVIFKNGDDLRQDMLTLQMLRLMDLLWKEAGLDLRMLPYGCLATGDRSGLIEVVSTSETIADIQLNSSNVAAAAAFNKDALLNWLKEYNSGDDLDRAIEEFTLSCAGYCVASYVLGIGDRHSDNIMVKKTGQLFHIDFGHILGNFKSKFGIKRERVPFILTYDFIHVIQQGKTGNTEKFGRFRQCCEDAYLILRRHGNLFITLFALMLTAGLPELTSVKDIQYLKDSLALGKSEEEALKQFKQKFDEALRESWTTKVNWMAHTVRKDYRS
Sequence (P27986 whole entry partner, canonical isoform): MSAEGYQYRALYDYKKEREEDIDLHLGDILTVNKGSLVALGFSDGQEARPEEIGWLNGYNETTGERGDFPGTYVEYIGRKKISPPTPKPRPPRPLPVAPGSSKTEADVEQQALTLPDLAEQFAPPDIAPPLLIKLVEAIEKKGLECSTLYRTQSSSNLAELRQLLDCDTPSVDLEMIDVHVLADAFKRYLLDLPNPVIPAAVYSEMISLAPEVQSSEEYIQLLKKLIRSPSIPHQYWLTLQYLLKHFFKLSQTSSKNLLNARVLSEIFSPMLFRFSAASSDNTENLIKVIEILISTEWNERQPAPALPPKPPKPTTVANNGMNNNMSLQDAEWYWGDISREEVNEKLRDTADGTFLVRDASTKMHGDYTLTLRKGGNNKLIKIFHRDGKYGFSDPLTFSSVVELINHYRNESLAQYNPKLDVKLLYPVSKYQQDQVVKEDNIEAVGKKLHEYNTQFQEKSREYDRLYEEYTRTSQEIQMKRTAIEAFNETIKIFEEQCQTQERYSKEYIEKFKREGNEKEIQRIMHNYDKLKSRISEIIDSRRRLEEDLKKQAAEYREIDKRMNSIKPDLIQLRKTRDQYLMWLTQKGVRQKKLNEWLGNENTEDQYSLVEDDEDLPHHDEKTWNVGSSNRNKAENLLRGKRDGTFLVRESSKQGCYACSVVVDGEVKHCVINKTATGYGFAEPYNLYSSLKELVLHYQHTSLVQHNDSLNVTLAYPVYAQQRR
assayExplanation: PI3K isoform TR-FRET enzymatic assay (PI3Kβ)
setupConditions: 2× Km ATP, 30 minutes at 25° C.
measuredAttribute: IC50 (nM)

Worked cases, IC50 given:
Cc1nc2c(-c3nnc[nH]3)cc(N3CCOCC3)cc2n1-c1ccnc2ccccc12 : 17
CCCc1nc2c(-c3nnc(Cl)[nH]3)cc(N3CCOCC3)cc2n1-c1ccnc2c(F)ccc(F)c12 : 34

a: Cc1nnc(-c2cc(N3CCOCC3)cc3c2nc(C)n3-c2ccnc3c(Cl)ccc(F)c23)[nH]1
b: Cc1nnc(-c2cc(N3CCOCC3)cc3c2nc(C)n3-c2ccnc3c(F)cccc23)[nH]1
c: Cc1nc2c(-c3nnc[nH]3)cc(N3CCOCC3)cc2n1-c1ccnc2c(Cl)cccc12 (atropisomer, axis not shown) [Compound 360]
d: Cc1nc2c(-c3cccc(C(N)=O)c3)cc(N3CCOCC3)cc2n1-c1ccnc2c(Cl)cccc12
e: Cc1nnc(-c2cc(N3CCOCC3)cc3c2ncn3-c2cc(-c3cc[nH]n3)nc3ccccc23)[nH]1
Inquiry: Hello, I need these entries ordered by IC50, highest reading first. Thanks! Output spec: labels arranged per the requested ranking.
Reply text: d, c, e, b, a
(d: 4400 nM, c: 2800 nM, e: 130 nM, b: 87 nM, a: 26 nM)
